Reference source for all entries: the supplement of paper PMC10567573

B1: BRF1 (parent)
chain: FVESSGGGSSAVGQFVSLDGAGKT

Variants of: B1
test protocol: protein stability index of a GFP-peptide fusion (GPS, HEK-293T) (PSI 1-6); higher = more stable;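 note: lentivirally expressed fusions sorted by FACS into six bins by GFP to DsRed ratio, PSI derived from sequencing read proportions per bin multiplied by bin number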
assay setup: c terminus: a fixed tail appended
quantity kind: protein stability index
// no unit string in output, number only

Data request: Quickly give me recorded protein stability index for `F1K`
Data returned: 4.59

Data request: Quickly give me recorded protein stability index for `G8P`
Data returned: 2.08

Data request: Quickly give me recorded protein stability index for `A11L`
Data returned: 1.77

Data request: Quickly give me recorded protein stability index for `T24N`
Data returned: 2.15

Data request: Quickly give me recorded protein stability index for `V2S`
Data returned: 4.35

Data request: Quickly give me recorded protein stability index for `V16P`
Data returned: 2.66

Data request: Quickly give me recorded protein stability index for `V2L`
Data returned: 4.72

Data request: Quickly give me recorded protein stability index for `S17N`
Data returned: 2.19

Data request: Quickly give me recorded protein stability index for `G13W`
Data returned: 1.49

Data request: Quickly give me recorded protein stability index for `G8C`
Data returned: 1.95

Data request: Quickly give me recorded protein stability index for `V12Y`
Data returned: 1.29
